target: androgen receptor (AR-LBD) (Rattus norvegicus, UniProt P15207); construct: 5 μL of 2×AR-LBD/Fluoromone AL Red Complex contained in the kit; purchased Invitrogen; assay: Evaluation of androgen receptor affinity (PolarScreen Androgen Receptor Competitor Assay Kit, Red; fluorescence polarization); conditions: 22° C. for 5 hours, relative to binding rate of 1 μM DHT, read-out: AR affinity (pEC50) (converted)
Sequence (P15207 651-882 limits assumed): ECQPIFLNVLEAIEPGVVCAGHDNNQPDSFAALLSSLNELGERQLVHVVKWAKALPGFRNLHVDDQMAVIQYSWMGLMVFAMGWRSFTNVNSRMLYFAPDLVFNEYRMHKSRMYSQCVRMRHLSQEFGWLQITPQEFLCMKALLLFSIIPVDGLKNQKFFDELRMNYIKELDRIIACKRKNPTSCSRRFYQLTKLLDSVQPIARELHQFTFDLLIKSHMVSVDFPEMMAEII
QUANTITY_NAME: EC50 (nM)

• CS(=O)(=O)NC(=O)c1nc(N(Cc2ccc(OC(F)F)cc2)c2ccc(C#N)cc2)sc1C1CC1 = 20
• Cc1cc(F)cc(CN(c2ccc(C#N)cc2)c2nc(C(=O)NS(C)(=O)=O)c(C)s2)c1 = 39.8
• CCc1oc(N(Cc2ccc(OC(F)F)c(F)c2)c2ccc(C#N)cc2)nc1C(=O)NS(C)(=O)=O = 39.8
• Cc1sc(N(CC2CCCC2)c2ccc(C#N)cc2)nc1C(=O)NS(C)(=O)=O = 158
• Cc1nc(CN(c2ccc(C#N)cc2)c2nc(C(=O)NS(C)(=O)=O)c(C)s2)cs1 = 1000

(a) Cc1sc(N(Cc2cccc(OCC(C)C)c2)c2ccc(C#N)cc2)nc1C(=O)NS(C)(=O)=O
(b) COCCCS(=O)(=O)NC(=O)c1nc(N(Cc2ccc(OC(F)F)cc2F)c2ccc(C#N)cc2)sc1C
(c) Cc1sc(N(Cc2nc3ccccc3s2)c2ccc(C#N)cc2)nc1C(=O)NS(C)(=O)=O
Prompt: Ascending by EC50, please: list the compounds accordingly. In plain terms: list the labels in the order you were asked to.
Completion: b, a, c
(b: 31.6 nM, a: 79.4 nM, c: 126 nM)

(1) Cc1sc(N(Cc2ccc(Br)cc2)c2ccc(C#N)cc2)nc1C(=O)NS(C)(=O)=O
(2) COCCCS(=O)(=O)NC(=O)c1nc(N(CCc2ccc(C#N)cc2)Cc2ccc(F)cc2Cl)oc1C
Prompt: I'm curious, which of these has a smaller EC50 number: 1 or 2 ? Response format: the label of the selected entry.
Completion: 1
(1: 39.8 nM, 2: 63.1 nM)

(A) Cc1sc(N(CCc2cccc(OC(F)(F)F)c2)Cc2ccccc2)nc1C(=O)NS(C)(=O)=O
(B) Cc1sc(N(Cc2ccc(-c3ccccc3F)nc2)c2ccc(C#N)cc2)nc1C(=O)NS(C)(=O)=O
Prompt: I'm curious, which of these has a smaller EC50 number: A or B ? Response format: the label of the selected entry.
Completion: B
(B: 158 nM, A: 398 nM)

(P) CNC(=O)c1ccc(CCN(Cc2ccccc2)c2nc(C(=O)NS(C)(=O)=O)c(C)s2)cc1
(Q) Cc1sc(N(Cc2ccc(OCc3ccccc3)cc2)c2ccc(C#N)cc2)nc1C(=O)NS(C)(=O)=O
Prompt: I'm curious, which of these has a smaller EC50 number: P or Q ? Response format: the label of the selected entry.
Completion: Q
(Q: 31.6 nM, P: 501 nM)

(a) Cc1sc(N(Cc2ccco2)c2ccc(C#N)cc2)nc1C(=O)NS(C)(=O)=O
(b) Cc1cccc(CN(c2ccc(C#N)cc2)c2nc(C(=O)NS(C)(=O)=O)c(Br)s2)c1
Prompt: I'm curious, which of these has a smaller EC50 number: a or b ? Response format: the label of the selected entry.
Completion: b
(b: 79.4 nM, a: 158 nM)

(P) CS(=O)(=O)NC(=O)c1nc(N(Cc2ccccc2OC(F)F)c2ccc(C#N)cc2)sc1Cl
(Q) Cc1sc(N(CCC(C)(C)C)c2ccc(C#N)cc2)nc1C(=O)NS(C)(=O)=O
Prompt: Larger number for EC50: P , or Q ? Response format: the label of the selected entry.
Completion: Q

(a) Cc1sc(N(CC2CCCCC2)c2ccc(C#N)cc2)nc1C(=O)NS(C)(=O)=O
(b) Cc1sc(N(CCc2ccc(Cl)cc2)Cc2ccc(Cl)cc2)nc1C(=O)NS(=O)(=O)C1CC1
Prompt: Larger number for EC50: a , or b ? Response format: the label of the selected entry.
Completion: b
(b: 63.1 nM, a: 39.8 nM)

(P) Cc1sc(N(Cc2ccc(OC(F)(F)F)cc2)c2ccc(C#N)cc2)nc1C(=O)NS(C)(=O)=O
(Q) Cc1sc(N(CC23CC4CC(CC(C4)C2)C3)c2ccc(C#N)cc2)nc1C(=O)NS(C)(=O)=O
Prompt: Larger number for EC50: P , or Q ? Response format: the label of the selected entry.
Completion: Q

---

target: androgen receptor (AR-LBD) (Rattus norvegicus, UniProt P15207); construct: 5 μL of 2×AR-LBD/Fluoromone AL Red Complex contained in the kit; purchased Invitrogen; test: Evaluation of androgen receptor affinity (PolarScreen Androgen Receptor Competitor Assay Kit, Red; fluorescence polarization); conditions: 22° C. for 5 hours, relative to binding rate of 1 μM DHT, read-out: AR affinity (pEC50) (converted)
QUANTITY_NAME: EC50 (nM)

// worked examples, EC50 included
* Cc1sc(N(Cc2c(F)cccc2F)c2ccc(C#N)cc2)nc1C(=O)NS(C)(=O)=O | 63.1
* Cc1sc(N(Cc2ccccc2SC(F)(F)F)c2ccc(C#N)cc2)nc1C(=O)NS(C)(=O)=O | 63.1

(A) Cc1sc(N(CCc2ccc(Cl)cc2)CC[C@H]2CCCC[C@@H]2O)nc1C(=O)NS(C)(=O)=O (racemic)
(B) COCCOc1ccc(N(Cc2ccccc2)c2nc(C(=O)NS(C)(=O)=O)c(C)s2)cc1
(C) Cc1sc(N(CCc2cccc(F)c2)c2ccc(C#N)cc2)nc1C(=O)NS(C)(=O)=O
Prompt: Order the items by recorded EC50; the first position goes to the largest value. In plain terms: list the labels in the order you were asked to.
Completion: B, C, A
(B: 501 nM, C: 126 nM, A: 50.1 nM)

---

biological target: androgen receptor (AR-LBD) (Rattus norvegicus); construct: 5 μL of 2×AR-LBD/Fluoromone AL Red Complex contained in the kit; purchased Invitrogen; assay: Evaluation of androgen receptor affinity (PolarScreen Androgen Receptor Competitor Assay Kit, Red; fluorescence polarization); conditions: 22° C. for 5 hours, relative to binding rate of 1 μM DHT, read-out: AR affinity (pEC50) (converted)
QUANTITY_NAME: EC50

• Cc1sc(N(CC2CCCC2O)c2ccc(C#N)cc2)nc1C(=O)NS(C)(=O)=O (stereo not drawn) = > 2000 nM
• Cc1sc(N(Cc2ccccc2)c2cccc(O)c2)nc1C(=O)NS(C)(=O)=O = > 2000 nM

Next molecule, please.
# `Cc1sc(N(CCc2ccc(C(N)=O)cc2)Cc2ccccc2)nc1C(=O)NS(C)(=O)=O` with androgen receptor (AR-LBD) (Rattus norvegicus): EC50 is > 2000 nM

---

molecular target: human androgen receptor (Homo sapiens); construct: expressed in transfected cells; host or cells: HEK293; assay: Reporter assay of an androgen receptor responsive sequence (luciferase, transiently transfected HEK293 cells); assay type: cell-based; settings: 24 hours incubation, relative to activity of 100 nM DHT, read-out: AR transcriptive activity (pEC50) (converted)
Sequence (P10275 whole entry): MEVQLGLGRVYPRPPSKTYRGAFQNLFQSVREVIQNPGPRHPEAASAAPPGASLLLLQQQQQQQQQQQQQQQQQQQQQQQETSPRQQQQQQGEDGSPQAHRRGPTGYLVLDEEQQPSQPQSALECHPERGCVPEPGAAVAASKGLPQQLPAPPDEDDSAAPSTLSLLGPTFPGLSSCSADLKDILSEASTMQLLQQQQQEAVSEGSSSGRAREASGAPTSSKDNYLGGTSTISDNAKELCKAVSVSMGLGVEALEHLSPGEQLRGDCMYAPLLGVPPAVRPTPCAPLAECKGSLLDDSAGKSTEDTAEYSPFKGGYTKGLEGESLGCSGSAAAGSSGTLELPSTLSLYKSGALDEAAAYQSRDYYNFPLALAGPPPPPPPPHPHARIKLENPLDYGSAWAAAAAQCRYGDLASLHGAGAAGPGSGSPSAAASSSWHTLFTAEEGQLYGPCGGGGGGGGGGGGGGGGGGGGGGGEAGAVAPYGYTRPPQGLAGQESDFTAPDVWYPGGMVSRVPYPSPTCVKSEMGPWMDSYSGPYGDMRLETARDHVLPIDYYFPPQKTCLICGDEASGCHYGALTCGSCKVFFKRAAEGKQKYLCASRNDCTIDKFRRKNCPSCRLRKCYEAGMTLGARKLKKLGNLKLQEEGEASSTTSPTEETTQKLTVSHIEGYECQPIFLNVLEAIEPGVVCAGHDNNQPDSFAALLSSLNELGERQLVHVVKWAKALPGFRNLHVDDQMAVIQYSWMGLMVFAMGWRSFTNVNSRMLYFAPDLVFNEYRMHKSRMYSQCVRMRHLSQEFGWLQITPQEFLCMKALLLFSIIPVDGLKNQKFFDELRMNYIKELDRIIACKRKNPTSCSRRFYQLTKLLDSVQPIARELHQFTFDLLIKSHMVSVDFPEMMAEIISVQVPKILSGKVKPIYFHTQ
QUANTITY_NAME: EC50 (nM)

• CCc1oc(N(Cc2ccc(Br)cn2)c2ccc(C#N)cc2)nc1C(=O)NS(C)(=O)=O = 1580

(a) Cc1sc(N(Cc2ccc(C(F)(F)F)cn2)c2ccc(C#N)cc2)nc1C(=O)NS(C)(=O)=O
(b) Cc1sc(N(Cc2ccccc2)c2ccc(C#N)cc2)nc1C(=O)NS(=O)(=O)CC(F)(F)F
Prompt: Larger number for EC50: a , or b ? Response format: the label of the selected entry.
Completion: b
(b: 1260 nM, a: 158 nM)

(1) Cc1sc(N(CC2=CCCCC2)c2ccc(C#N)cc2)nc1C(=O)NS(C)(=O)=O
(2) CCc1oc(N(Cc2ccc(C(F)(F)F)nc2)c2ccc(C#N)cc2)nc1C(=O)NS(C)(=O)=O
(3) CCc1oc(N(Cc2ccc(OC(F)F)c(F)c2)c2ccc(C#N)cc2)nc1C(=O)NS(C)(=O)=O
(4) Cc1sc(N(Cc2cnc(-c3ccc(F)cc3)s2)c2ccc(C#N)cc2)nc1C(=O)NS(C)(=O)=O
Prompt: Order the items by recorded EC50; the first position goes to the largest value. In plain terms: list the labels in the order you were asked to.
Completion: 2, 4, 3, 1

(a) Cc1sc(N(CCc2ccc(Cl)cc2)c2ccc(C#N)cc2)nc1C(=O)NS(C)(=O)=O
(b) Cc1sc(N(Cc2ccc3c(c2)CCO3)c2ccc(C#N)cc2)nc1C(=O)NS(C)(=O)=O
(c) Cc1sc(N(Cc2ccc(C(F)F)c(F)c2)c2ccc(C#N)cc2)nc1C(=O)NS(C)(=O)=O
(d) Cc1sc(N(Cc2ccc(F)cc2OC(F)F)c2ccc(C#N)cc2)nc1C(=O)NS(C)(=O)=O
Prompt: Order the items by recorded EC50; the first position goes to the largest value. In plain terms: list the labels in the order you were asked to.
Completion: a, d, b, c
